This section presents compounds with their documented MRT values.
assay: Mean residence time in ICR mouse liver at 80 mg/kg, po administered as single dose; type: ADME, organism-based
Give just the numeric value; h need not be written.

Recorded MRT, per entry:
INSERT INTO measurements (compound, reported_result) VALUES
  ('CCCN(CCC)CCCOc1ccc2c(=O)c3c(F)cc(F)cc3[nH]c2c1', 13.3),
  ('CCCN(CCC)CCOc1ccc2c(=O)c3c(F)cc(F)cc3[nH]c2c1', 8.9),
  ('CCCN(CCC)CCOc1ccc2c(=O)c3c(Cl)c(Cl)ccc3[nH]c2c1', 6.07);

Tell me MRT reported for `CCN(CC)CCOc1ccc2c(=O)c3ccc(Cl)cc3[nH]c2c1` 5.59

Tell me MRT reported for `CCCCN(CCCC)CCOc1ccc2c(=O)c3c(Cl)c(Cl)ccc3[nH]c2c1` 10.1

Tell me MRT reported for COc1cc(NC(C)CCCN)c2ncccc2c1 (stereo unspecified) 4.5

Data origin: ChEMBL document CHEMBL4390668
